Test: NCI Yeast Anticancer Drug Screen. Data for the rad50 strain (AID 155);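 further: 0% = growth of vehicle-only cultures of the same strain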
Conditions: S. cerevisiae rad50 strain growth inhibition; at 50.0 µM; stronger effect = higher value
About 79,000 compounds went through this panel and 15% of them were active in at least one assay; those are over-represented in the sample as a whole.
Criterion: growth inhibition meeting or surpassing 20%. Met: class 1. Not met: class 0.

{"Compound": "CN1C(=O)CN2CCc3ccccc3C2c2cc(Cl)ccc21 (configuration not stated)", "Category label": "class 1"}
{"Compound": "S=C1CCCCCN1", "Category label": "class 1"}
{"Compound": "C[C@@H](c1ccccc1)[C@@H](C(=O)O)c1ccccc1", "Category label": "class 0"}
{"Compound": "CC(=O)OC1CC2C(C)(C)OC3CC(=O)OCC32C2CCC3(C)C(=CCC3c3ccoc3)C12C (configuration not stated)", "Category label": "class 0"}
{"Compound": "O=C1Cc2cc(O)ccc2O1", "Category label": "class 0"}
